The reader will find reported growth inhibition values listed item by item below.
Test: NCI Yeast Anticancer Drug Screen. Data for the wt2 strain (AID 169);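 further: 0% = growth of vehicle-treated yeast cultures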
Measurement Context: S. cerevisiae wt2 strain growth inhibition; at 3.7 µM; stronger effect = higher value
About 79,000 compounds went through this panel and 15% of them were active in at least one assay; those are over-represented in the sample as a whole.
Number in %, nothing else.

Query: growth inhibition; subject: COc1ccc(-c2cc(-c3cc(C)cc(Cl)c3O)nc3[nH]c(=S)[nH]c(=S)c23)cc1
-4

Query: growth inhibition; subject: CCOC(=O)Nc1ccc(C)c(NC(=O)OCC)c1
8

Query: growth inhibition; subject: CSc1nc(-c2ccccc2)nc(=[N+]2CCOCC2)s1
15

Query: growth inhibition; subject: CCCCCCCCNCCCCCCCC
17

Query: growth inhibition; subject: N#CSCC1COc2ccccc2O1 (configuration not stated)
-51

Query: growth inhibition; subject: C[C@H](CCC1=NC(C)(C)CO1)C1CCC2[C@@H]3C(O)C[C@@H]4CC(O)CC[C@]4(C)C3CC[C@@]21C (some centres not stated)
-7

Query: growth inhibition; subject: O=C1Nc2ccc(Br)cc2C1=Nc1ccc(Cl)cc1
-12

* * *

Test: NCI Yeast Anticancer Drug Screen. Data for the mlh1 rad18 strain (AID 175)
Measurement Context: S. cerevisiae mlh1 rad18 strain growth inhibition; at 50.0 µM
About 79,000 compounds went through this panel and 15% of them were active in at least one assay; those are over-represented in the sample as a whole. Calls of active or inactive are those of the source. Rule as the data show it: active = growth inhibition above about 70%; inactive = the rest.
Lab note: assign the record to one of active, inactive

Examples with answers:
>>> qualitative_label("C/C(=N\\OCC(O)CNCCSCc1ccccc1)c1ccccc1Cl (stereo not drawn)")
"active"
>>> qualitative_label("Cc1ccc(NC(Nc2ccc(C)cc2C)=C(C(Cl)=C(Cl)Cl)[N+](=O)[O-])c(C)c1")
"active"

Fill in: this test's call for CC(C)(C)c1ccc2c(c1)C(=O)c1ccccc1C2=O is ___
inactive

* * *

Test: NCI Yeast Anticancer Drug Screen. Data for the cln2 rad14 strain (AID 165);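 further: 0% = growth equal to vehicle treated cultures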
Measurement Context: S. cerevisiae cln2 rad14 strain, at 50.0 µM (retest, dose inferred, filed as 5.0), stronger effect = higher value
Compounds without any hit were thinned out: in the full panel of roughly 79,000, 15% have a hit.
Test Readout: growth inhibition (%)
Number in %, nothing else.

The cases that follow already have their growth inhibition on record.
>>> value("CCC(/C=C/c1ccccc1)=N\\Nc1ccc(Cl)cc1")
38
>>> value("CCC(=O)Nc1ccc(N=NN(C)C)cc1")
55
>>> value("O=[N+]([O-])c1ccc(/C=C\\c2ccc3c(c2)OCO3)c([N+](=O)[O-])c1")
76

Query: growth inhibition; subject: CCOC(=O)Nc1ccc(C)c(NC(=O)OCC)c1
23

Query: growth inhibition; subject: COc1ccc(C(=O)/C=C\c2ccc(Cl)c(Cl)c2)cc1
77

Query: growth inhibition; subject: Nc1cc2c(cc1N)-c1ccccc1C2=O
15

Query: growth inhibition; subject: COc1ccc2nc3cccc([N+](=O)[O-])c3c(NCCNCCO)c2c1
98

Query: growth inhibition; subject: O=C(NOC(=O)c1ccc([N+](=O)[O-])cc1)c1ccc(Cl)cc1
96

Query: growth inhibition; subject: S=C1C(=Nc2ccccc2)N(c2ccccc2)/C(=N\c2ccccn2)N1c1ccccc1
97

Query: growth inhibition; subject: CCCCOc1ccc2nc(C)cc(N=[N+]=[N-])c2c1
70

Query: growth inhibition; subject: COc1cc2oc3ccccc3c(=O)c2cc1CSc1ccccc1N
34

* * *

Test: NCI Yeast Anticancer Drug Screen. Data for the bub3 strain (AID 167)
Measurement Context: S. cerevisiae bub3 mutant strain, at 11.0 µM
Compounds without any hit were thinned out: in the full panel of roughly 79,000, 15% have a hit. Activity calls are given as the source filed them. No stated cut-off is given here; in the data, active means growth inhibition above about 70%; inactive means the rest.
Lab note: assign the record to one of 1 (active), -1 (inactive)

Examples with answers:
>>> qualitative_label("CCOP(=O)(OCC)/C(C#N)=C\\c1cccc2ccccc12")
-1
>>> qualitative_label("O=C1c2cccc3cccc(c23)C(=O)N1O")
1
>>> qualitative_label("O=C1Nc2ccc(Br)cc2C1=Nc1ccc(Cl)cc1")
-1
>>> qualitative_label("O=C(CN(c1ccccc1)c1ccccc1)n1nnc2ccccc21")
-1
>>> qualitative_label("CCCCN(CCCC)c1ccc(N=Nc2ccc(S(=O)(=O)O)cc2)cc1")
1

Fill in: this test's call for O=C1c2ccccc2-c2cc3ccccc3c(=O)n21 is ___
-1

Fill in: this test's call for CC(/C=C/c1ccc([N+](=O)[O-])o1)=N/N1CC(CN2CCOCC2)OC1=O (configuration not stated) is ___
-1

Fill in: this test's call for Cc1ccnc2c(O)cccc12 is ___
1

Fill in: this test's call for CC(C)OP(=O)(OC(C)C)C(=NCCO)NNc1ccc([N+](=O)[O-])cc1 is ___
-1

Fill in: this test's call for CCOP(=O)(OCC)/C(C#N)=C/c1ccc(-c2ccc(F)cc2F)o1 is ___
-1

Fill in: this test's call for O=C(Nn1c(-c2ccccc2)nc2ccccc2c1=O)c1ccc(CS)cc1 is ___
-1

Fill in: this test's call for c1ccc2c(c1)N=C1CCCC3CCCC123 (configuration not stated) is ___
-1

Fill in: this test's call for CC(=O)O/N=C1C=C/C(=C(/C#N)c2ccccc2)C=C/1C is ___
-1

Fill in: this test's call for O=[N+]([O-])/C=C/c1cc2ccc3ccccc3c2[nH]1 is ___
-1

Fill in: this test's call for CS(=O)(=O)O.[Ag] is ___
1

Fill in: this test's call for COc1cc(OC)c(CSCC(NC(=O)OCC2c3ccccc3-c3ccccc32)C(=O)O)c(OC)c1 (configuration not stated) is ___
-1

Fill in: this test's call for O=C1CCC(Cc2ccccc2)CN1 (configuration not stated) is ___
-1

* * *

Test: NCI Yeast Anticancer Drug Screen. Data for the rad18 strain (AID 177)
Measurement Context: S. cerevisiae rad18 mutant growth inhibition; at 1.2 µM; stronger effect = higher value
About 79,000 compounds went through this panel and 15% of them were active in at least one assay; those are over-represented in the sample as a whole.
Lab note: anything with growth inhibition at or over 10% counts as true; the rest go in false.

>>> qualitative_label("CN(C)CCNCCCNc1c2ccccc2nc2cccc([N+](=O)[O-])c12")
"true"
>>> qualitative_label("CC(C)=CCC/C(C)=C/CN1C(=O)C=CC1=O")
"false"
>>> qualitative_label("CC(/C=C/c1ccc([N+](=O)[O-])o1)=N/N1CC(CN2CCOCC2)OC1=O (centres undefined)")
"true"
>>> qualitative_label("CC1=C(C)C(=O)C2=C(OCCO2)C1=O")
"false"
>>> qualitative_label("O=C1C(=O)c2cccc([N+](=O)[O-])c2-c2ccccc21")
"false"
>>> qualitative_label("O=C(O)c1ccccc1C(=O)OC1CCc2ccccc2C1 (centres undefined)")
"false"
>>> qualitative_label("CC(C)C(=O)CC(Sc1ccc(N)cc1)c1ccccc1 (centres undefined)")
"false"
>>> qualitative_label("CCCCCCCCCC(=O)N(CCC)CCC")
"true"
>>> qualitative_label("O=[N+]([O-])c1ccc2[nH]c3c(-c4ccccc4)nccc3c2c1")
"false"
>>> qualitative_label("O=c1c2ccccc2nc(-c2ccc(Cl)cc2)n1O")
"true"

Confirm if growth inhibition reported for the compound Cc1cccc2c1C1c3c(C)cccc3C(CC(=O)O)CC1CC2 (centres undefined) is 10% or above.
true

Confirm if growth inhibition reported for the compound Cc1ccc(NC(=O)CCC(=O)C(C)C(=O)c2ccccc2)c(C)c1 (centres undefined) is 10% or above.
false

Confirm if growth inhibition reported for the compound O=C(Oc1ccc([N+](=O)[O-])cc1)c1ccc([N+](=O)[O-])cc1 is 10% or above.
false

Confirm if growth inhibition reported for the compound CC1CCC(C2=CSC3CCCCC3N2)CC1 (centres undefined) is 10% or above.
false

Confirm if growth inhibition reported for the compound O=C1CCC(Cc2ccccc2)CN1 (centres undefined) is 10% or above.
false

Confirm if growth inhibition reported for the compound O=C(NOC(=O)c1ccc([N+](=O)[O-])cc1)c1ccc(Cl)cc1 is 10% or above.
false

* * *

Test: NCI Yeast Anticancer Drug Screen. Data for the bub3 strain (AID 167)
Measurement Context: S. cerevisiae bub3 mutant strain, at 1.2 µM, stronger effect = higher value
This is part of a sample that, as a whole, favours compounds with a hit. Of some 79,000 tested, about 15% had one in any assay.
The reader will find reported growth inhibition values listed item by item below.
Number in %, nothing else.

The cases that follow already have their growth inhibition on record.
>>> value("Fc1cc(F)c(F)c(S)c1F")
-9
>>> value("Cc1c(C(=O)/C=C/c2ccccc2[N+](=O)[O-])[n+](=O)c2ccccc2n1[O-]")
-1

Query: growth inhibition; subject: ClCCCOc1c(Cl)cc(Cl)cc1Cl
0

Query: growth inhibition; subject: COC(=O)C(=O)CC(=O)c1cccc(OC)c1
-4

Query: growth inhibition; subject: O=C1C(=C2CCCC2)CCC1CN1CCCCC1 (configuration not stated)
8

Query: growth inhibition; subject: C[n+]1c(-c2ccc(/C=N/NC(=O)c3ccc(C(=O)N/N=C/c4ccc(-c5cn6ccccc6[n+]5C)cc4)cc3)cc2)cn2ccccc21
-5
